biological target: Ephrin type-B receptor 3 (Homo sapiens, UniProt P54753); also: in the data inactive means no Kd found up to 30 µM
Sequence (P54753 whole entry): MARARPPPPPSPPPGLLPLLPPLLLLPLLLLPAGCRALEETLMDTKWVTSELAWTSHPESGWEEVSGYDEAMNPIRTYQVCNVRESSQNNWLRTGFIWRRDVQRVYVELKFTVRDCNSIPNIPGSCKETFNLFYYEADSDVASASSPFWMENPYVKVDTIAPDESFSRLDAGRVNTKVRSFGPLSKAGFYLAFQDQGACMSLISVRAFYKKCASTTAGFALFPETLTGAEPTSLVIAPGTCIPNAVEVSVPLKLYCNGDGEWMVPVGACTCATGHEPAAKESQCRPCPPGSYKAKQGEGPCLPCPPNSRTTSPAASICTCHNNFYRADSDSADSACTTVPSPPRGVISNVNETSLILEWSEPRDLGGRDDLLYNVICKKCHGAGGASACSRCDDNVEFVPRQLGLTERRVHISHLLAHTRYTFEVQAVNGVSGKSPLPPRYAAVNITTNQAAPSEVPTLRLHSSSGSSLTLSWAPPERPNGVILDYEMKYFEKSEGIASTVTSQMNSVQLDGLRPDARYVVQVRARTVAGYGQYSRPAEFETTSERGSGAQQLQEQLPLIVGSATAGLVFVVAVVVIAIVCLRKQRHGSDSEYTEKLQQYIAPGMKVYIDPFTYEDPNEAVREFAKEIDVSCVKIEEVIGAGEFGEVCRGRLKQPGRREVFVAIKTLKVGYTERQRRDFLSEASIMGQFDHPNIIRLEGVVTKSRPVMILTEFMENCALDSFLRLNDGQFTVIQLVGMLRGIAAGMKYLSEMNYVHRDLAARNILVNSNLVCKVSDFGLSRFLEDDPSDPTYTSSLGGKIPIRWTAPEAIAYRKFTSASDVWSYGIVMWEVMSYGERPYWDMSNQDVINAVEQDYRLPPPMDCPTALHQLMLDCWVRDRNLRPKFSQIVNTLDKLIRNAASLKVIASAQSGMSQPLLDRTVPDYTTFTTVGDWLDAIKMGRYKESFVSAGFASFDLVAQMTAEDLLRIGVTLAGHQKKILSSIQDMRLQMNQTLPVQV
Activity calls are given as the source filed them.
// allowed return values: active, inactive

// known answers, use as guide
Molecule: CN(C)C(=O)c1cc2cnc(Nc3ccc(N4CCNCC4)cn3)nc2n1C1CCCC1
Test target: Ephrin type-B receptor 3 (Homo sapiens, UniProt P54753); also: in the data inactive means no Kd found up to 30 µM
Group label: inactive
//
Molecule: C[C@@H]1CN(Cc2ccc(F)cc2)[C@@H](C)CN1C(=O)c1cc2c(C(=O)C(=O)N(C)C)cn(C)c2cc1Cl
Test target: Ephrin type-B receptor 3 (Homo sapiens, UniProt P54753); also: in the data inactive means no Kd found up to 30 µM
Group label: inactive
//
Molecule: C=CC(=O)N1CCC(Oc2cc3c(Nc4ccc(Cl)c(Cl)c4F)ncnc3cc2OC)CC1
Test target: Ephrin type-B receptor 3 (Homo sapiens, UniProt P54753); also: in the data inactive means no Kd found up to 30 µM
Group label: inactive
//
Molecule: COc1cc(OC)c(/C=C/S(=O)(=O)Cc2ccc(OC)c(NCC(=O)O)c2)c(OC)c1
Test target: Ephrin type-B receptor 3 (Homo sapiens, UniProt P54753); also: in the data inactive means no Kd found up to 30 µM
Group label: inactive
//
Molecule: COc1cc(N2CCC(N3CCN(C)CC3)CC2)ccc1Nc1ncnc(Nc2ccccc2S(=O)(=O)C(C)C)n1
Test target: Ephrin type-B receptor 3 (Homo sapiens, UniProt P54753); also: in the data inactive means no Kd found up to 30 µM
Group label: active

# input Hi, sorry to bother you, what did the test record for CN1CC[C@@H](c2c(O)cc(O)c3c(=O)cc(-c4ccccc4Cl)oc23)[C@@H]1CO ?
# output inactive

# input How was Cc1cc([C@@H](C)Nc2ccccc2C(=O)O)c2nc(N3CCOCC3)cc(=O)n2c1 classified in this test?
# output inactive

# input Tell me the assay call for CC(=O)Nc1cccc(-n2c(=O)n(C3CC3)c(=O)c3c(Nc4ccc(I)cc4F)n(C)c(=O)c(C)c32)c1 please.
# output inactive
